# credit: PubChem BioAssay AID1159580

# Assay name: chemical genetic growth profiling, strain panel (AID 1159580);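 note: tested at 20 µM; growth read once vehicle control cultures reached saturation at 30 °C; 1 = growth at the plate median or of vehicle wells; lower values mean less growth of the strain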
# Measurement parameters: S. cerevisiae deletion strains, growth OD, locus YLR262C, strain YPT6, active compounds read low
Screen size: about 5,500 compounds; about 2,000 (36%) were called active. Another 18% or so got no clear call; they are omitted. Some of the results follow.
Property measured: normalized growth
One number for each entry.

Below are worked cases with known answers.
NCc1ccc(S(N)(=O)=O)cc1
1.02
CCOC(=O)c1c(C)n(-c2ccccc2)c2ccc(O)cc12
0.984
Nc1nc2c(c(=O)[nH]1)N(C=O)C(CNc1ccc(C(=O)N[C@@H](CCC(=O)O)C(=O)O)cc1)CN2 (stereo not given in full)
1.02

Fill in normalized growth for each of the 2 compounds listed.
1. CC1CC2C(C(O)CC3(C)C2CCC3(O)C(=O)COC(=O)CCC(=O)O)C2(C)C=CC(=O)C=C12 (stereo not given)
2. CCOP(=S)(OCC)SCSCC

1. 0.98
2. 0.953

----------
# Assay name: chemical genetic growth profiling, strain panel (AID 1159580);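 note: tested at 20 µM; growth read once vehicle control cultures reached saturation at 30 °C; 1 = growth at the plate median or of vehicle wells; lower values mean less growth of the strain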
# Measurement parameters: S. cerevisiae deletion strains, growth OD, locus YIL073C, strain SPO22, active compounds read low
In all, about 5,500 compounds went through this assay and about 2,000 (36%) were called active. Roughly 18% stayed inconclusive and do not appear here. This is one part of the list.
Property measured: normalized growth
One number for each entry.

C[C@H](COc1ccccc1)N[C@H](C)[C@H](O)c1ccc(O)cc1
0.977

Working through the 2 compounds below one at a time, give normalized growth for each.
1. COc1cc(/C=C/C(=O)O)ccc1O
2. COc1cc(C(=O)O)c(O)c2c1OCO2

1. 0.99
2. 1.02

----------
# Assay name: chemical genetic growth profiling, strain panel (AID 1159580);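 note: tested at 20 µM; growth read once vehicle control cultures reached saturation at 30 °C; 1 = growth at the plate median or of vehicle wells; lower values mean less growth of the strain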
# Measurement parameters: S. cerevisiae deletion strains, growth OD, locus YOR083W, strain WHI5 (second series), active compounds read low
Screen size: about 5,500 compounds; about 2,000 (36%) were called active. Inconclusive results (about 18%) are left out. This is one part of the list.
Property measured: normalized growth
Give bare numbers.

O=C(OCCN1CCOCC1)C1(c2ccccc2)CCCCC1
1
C=CCN1CC[C@]23c4c5ccc(O)c4O[C@H]2/C(=N\NC(=O)c2ccccc2)CC[C@@]3(O)[C@H]1C5
0.991
CCn1cc(C(=O)O)c(=O)c2cc3c(cc21)OCO3
0.981
CC(C)COC(=O)OCN1C(=O)CN(CCN2CC(=O)N(COC(=O)OCC(C)C)C(=O)C2)CC1=O
1.01
CC(C)CC(NP(=O)(O)O[C@@H]1O[C@@H](C)[C@H](O)[C@@H](O)[C@H]1O)C(=O)NC(Cc1c[nH]c2ccccc12)C(=O)O (some centres not stated)
1.01
COc1ccccc1OCC(O)CN1CCN(CC(=O)Nc2c(C)cccc2C)CC1 (configuration not stated)
1.02

Next, consider the following molecule.
// field: normalized growth; key: COCCCCC(=NOCCN)c1ccc(C(F)(F)F)cc1 ; value = 0.993

----------
I'd be grateful if you could share measured normalized growth for these entries.
# Assay name: chemical genetic growth profiling, strain panel (AID 1159580);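 note: tested at 20 µM; growth read once vehicle control cultures reached saturation at 30 °C; 1 = growth at the plate median or of vehicle wells; lower values mean less growth of the strain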
# Measurement parameters: S. cerevisiae deletion strains, growth OD, locus YOR080W, strain dia2, active compounds read low
The whole screen tested about 5,500 compounds, of which about 2,000 (36%) were called active. Another 18% or so got no clear call; they are omitted. The list shows a part of the results.
Answers are plain numbers.

CC1=C(/C=C/C(C)=C/C=C/C(C)=C/CO)C(C)(C)CCC1
1.01

Batch request: normalized growth per item, same order as input.
1. COc1ccc(/C=C/c2cc(O)cc(O)c2)cc1
2. CC1=C(/C=C/C(C)=C/C=C/C(C)=C/C(=O)O)C(C)(C)CCC1
3. CC[C@]1(O)CC2CN(CCc3c([nH]c4ccccc34)[C@@](C(=O)OC)(c3cc4c(cc3OC)N(C=O)[C@H]3[C@@](O)(C(=O)OC)[C@H](OC(C)=O)[C@]5(CC)C=CCN6CC[C@]43[C@@H]65)C2)C1 (stereo partly specified)
4. Cc1ccc(C(C)C)cc2c(C)ccc1-2
5. CC1=C(/C=C/C(C)=C/C=C/C(C)=C\C(=O)O)C(C)(C)CCC1

1
0.999
0.996
1.01
0.986
